The measurements presented in this section are drawn from patent US10099993B2.

- experiment.notes: In vivo PK in rats, p.o. administration
- Design: species or system rat
- reported.conditions: 20 mg/kg
Collected AUC(0→t) values appear next to each entry.

>  <smiles.representation>
Cc1c(OCCCCOc2ccc(F)c(C(=O)O)c2)ccc(C(=O)CC(C)C)c1O

>  <AUC(0→t)>
720.5 ± 283.4 (μmol/L) min

$$$$
>  <smiles.representation>
COc1ccc(C(=O)O)cc1OCCCCOc1ccc(C(=O)CC(C)C)c(O)c1C

>  <AUC(0→t)>
466.2 ± 105.2 (μmol/L) min

$$$$
>  <smiles.representation>
COc1cc(C(=O)O)ccc1OCCCCOc1ccc(C(=O)CC(C)C)c(O)c1C

>  <AUC(0→t)>
1274.6 ± 246.3 (μmol/L) min

$$$$
>  <smiles.representation>
Cc1c(OCCCCOc2ccc(C(=O)O)cc2)ccc(C(=O)CC(C)C)c1O

>  <AUC(0→t)>
544.8 ± 75.4 (μmol/L) min

$$$$
